Listing: growth of selected molecules
tested on: MALME-3M melanoma; assay: NCI-60 one-dose screen, 48 h (100 = growth as untreated, 0 = no growth, -100 = all killed); conditions: 10 µM unless noted
The panel holds about 83,000 compounds, 20% with a hit somewhere; the sample as a whole holds those more often.
measured_endpoint: growth (%)

* COc1ccc2c(c1)C(=O)c1c-2c(OCCN(C)C)nc2cc(OC)ccc12 | -39.9
* S=C(c1ccccc1)N1CCN(c2cccc(Cl)c2)CC1 | 97.4
* N#Cc1c(N)[nH]c(S)c1C#N | 107
* N#CCNc1ccccc1N | 96.2
* COc1ccc(/C=C2\NC(=S)NC2=O)cc1 | 77.5
* Cc1cc(C)c2c(c1)N1OC(C2)C[C@H]1/C=C/c1ccccc1 (stereo not given in full) | 103
* Cc1cc(NC(=O)c2ccc(N)cc2)ccc1N=Nc1ccc2c(O)c(N=Nc3ccc(Cl)c(S(=O)(=O)O)c3)c(S(=O)(=O)O)cc2c1 | 105
* C[C@]12CC[C@@H]3c4ccc(O)c([N+](=O)[O-])c4CC[C@H]3[C@@H]1CC[C@@H]2NS(=O)(=O)c1ccc(C(F)(F)F)cc1 | 31
* CCCCc1nc(Cl)c(CO)n1Cc1ccc(-c2ccccc2-c2nn[nH]n2)cc1 | 101
* ClC1=C(Cl)C(Cl)=C(Cl)C1=C/C=C/c1ccccc1 | -38.8
